System: Felis catus
Experiment: In vivo inhibition of beta-1 adrenergic receptor in cat assessed as inhibition of isoproterenol-induced tachycardia administered as 30 mins of infusion measured at 30 mins by cardiotachometer
Type: functional
Conditions: 0.5 h
Attribute: ED50

| COMPOUND | ED50, mg/kg |
| --- | --- |
| CCNC(=O)Nc1ccc(OCC(O)CNC(C)C)c(SC)c1 (stereo unspecified) | 0.198 |
| CNC(=O)Nc1ccc(OCC(O)CNC(C)C)c(C)c1 (stereo unspecified) | 0.17 |
| CCCCCCCCNC(=O)Nc1ccc(OCC(O)CNC(C)(C)C)c(C)c1 (stereo unspecified) | 0.08 |
| C=CCc1cc(NC(=O)NCC)ccc1OCC(O)CNC(C)(C)C (stereo unspecified) | 0.038 |
| C=CCc1cc(NC(=O)NCCC)ccc1OCC(O)CNC(C)C (stereo unspecified) | 0.213 |
| CCCCCCNC(=O)Nc1ccc(OCC(O)CNC(C)C)c(C)c1 (stereo unspecified) | 0.189 |

All values here come from ChEMBL document CHEMBL3244247.
